Please go through the items and note down their half-life at 10 µM.
experiment: Half life in rat brain homogenate at 10 uM; assay type: ADME, tissue-based
Where a SMILES comes first, the peptide text is derived from it. [ ]: non-standard residue; d: D form. ξ: configuration not given here. Dmt = Cc1cc(O)cc(C)c1C[C@H](N)C(=O)O; ξTiq(1-COOH) = O=C(O)C1NCCc2ccccc21
Response body: numeric value in min, unit text excluded.

Exercise: Supply recorded half-life at 10 µM for Cc1cc(O)cc(C)c1C[C@H](N)C(=O)N1CCc2ccccc2C1C(=O)N[C@@H](Cc1ccccc1)C(=O)N[C@@H](Cc1ccccc1)C(N)=O (stereo partly specified) (H-[Dmt][ξTiq(1-COOH)]FF-NH2) here.
Solution: 6.11

Exercise: Supply recorded half-life at 10 µM for `NC(=O)[C@H](Cc1ccccc1)NC(=O)[C@H](O)[C@H](Cc1ccccc1)NC(=O)[C@@H]1CCCN1C(=O)[C@@H](N)Cc1ccc(O)cc1` here.
Solution: 6.52

Exercise: Supply recorded half-life at 10 µM for `NC(=O)[C@@H](O)[C@H](Cc1ccccc1)NC(=O)[C@H](Cc1ccccc1)NC(=O)[C@@H]1CCCN1C(=O)[C@@H](N)Cc1ccc(O)cc1` here.
Solution: 2.3

Exercise: Supply recorded half-life at 10 µM for Cc1cc(O)cc(C)c1C[C@H](N)C(=O)N1CCc2ccccc2C1C(=O)N[C@@H](Cc1c[nH]c2ccccc12)C(=O)N[C@@H](Cc1ccccc1)C(N)=O (stereo partly specified) (H-[Dmt][ξTiq(1-COOH)]WF-NH2) here.
Solution: 32.2

Exercise: Supply recorded half-life at 10 µM for `NC(=O)C[C@H](Cc1ccccc1)NC(=O)[C@H](Cc1c[nH]c2ccccc12)NC(=O)[C@@H]1CCCN1C(=O)[C@@H](N)Cc1ccc(O)cc1` here.
Solution: 4.57
